# TGT: beta-secretase (BACE) in HEK293/APP751sw cells (Homo sapiens)
# Construct: endogenous in cells; host or cells: HEK293p (ATCC CRL-1573) stably expressing human APP751 Swedish
# Sequence (P56817 46-501): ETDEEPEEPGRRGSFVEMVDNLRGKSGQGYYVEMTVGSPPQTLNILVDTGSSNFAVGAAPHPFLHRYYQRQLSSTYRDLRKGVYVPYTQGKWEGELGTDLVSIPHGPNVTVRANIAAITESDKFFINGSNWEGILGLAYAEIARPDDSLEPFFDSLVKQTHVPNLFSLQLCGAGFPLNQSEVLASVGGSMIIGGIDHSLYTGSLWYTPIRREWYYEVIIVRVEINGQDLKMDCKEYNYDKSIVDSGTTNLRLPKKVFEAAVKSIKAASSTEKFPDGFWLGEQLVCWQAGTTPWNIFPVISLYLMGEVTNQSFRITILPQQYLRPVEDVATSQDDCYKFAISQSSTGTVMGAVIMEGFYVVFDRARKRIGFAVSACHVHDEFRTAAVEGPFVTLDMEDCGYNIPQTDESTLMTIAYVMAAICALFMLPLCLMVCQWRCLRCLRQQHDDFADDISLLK
# ASSAY_PROTOCOL: HEK293Swe whole cell assay (Abeta ELISA)
# Type: cell-based
# CONDITION_INFO: Table 29; comparator of WO 2007/049532 and enantiomers; read-out: HEK 293 Swe A-beta (1-40) ELISA IC50
ASSAY_METRIC: IC50 (µM)

- COMPOUND: "CC1(c2ccc(-c3ccccc3)cc2)CCSC(N)=N1 (stereo not drawn) [reference compound]"
  TGT: "beta-secretase (BACE) in HEK293/APP751sw cells (Homo sapiens)"
  IC50, µM: 21.4
- COMPOUND: "C[C@@]1(c2ccc(-c3ccccc3)cc2)CCSC(N)=N1 [reference compound]"
  TGT: "beta-secretase (BACE) in HEK293/APP751sw cells (Homo sapiens)"
  IC50, µM: 13.2
- COMPOUND: "C[C@]1(c2ccc(-c3ccccc3)cc2)CCSC(N)=N1 [reference compound]"
  TGT: "beta-secretase (BACE) in HEK293/APP751sw cells (Homo sapiens)"
  IC50, µM: 16.5
